Measured MIC by item
Tested on: Acinetobacter baumannii
Test: Broth dilution MIC (CLSI)
Format: cell-based
Details: read-out: MIC

| Molecule | Study target | MIC |
| --- | --- | --- |
| [H]/N=C(/N)N[C@H]1[C@H](O)[C@@H](O)[C@H](O[C@@H]2O[C@@H](C)[C@](O)(C=O)[C@H]2O[C@@H]2O[C@@H](CO)[C@H](O)[C@@H](O)[C@@H]2NC)[C@@H](N/C(N)=N\[H])[C@@H]1O | Acinetobacter baumannii | 6.3 µg/mL |
| COC(=O)[C@@H]1CCC(=O)N1Cc1cc2ccc(OCc3ccccc3)cc2c2cc(OC)c(OC)cc12 | Acinetobacter baumannii | > 100 µg/mL |
| CCCCOc1ccc2cc(CN3C(=O)CC[C@H]3C(=O)OC)c3cc(OC)c(OC)cc3c2c1 | Acinetobacter baumannii | > 100 µg/mL |
| COC(=O)[C@@H]1CCC(=O)N1Cc1cc2ccc(OC)cc2c2cc(OC)c(OC)cc12 | Acinetobacter baumannii | > 100 µg/mL |
| NNC(=O)c1ccncc1 [INH, isoniazid, reference compound] | Acinetobacter baumannii | > 100 µg/mL |
